# test-system: monomeric alpha-synuclein (UniProt P37840 1-140)
# test-description: SPR, captured mAb
assay-metric: kon (M⁻¹ s⁻¹)

ACI-8030-6106F5-Ab1 (antibody, V domains shown, mouse hybridoma mAb; VH/VL only; also called 6106F5B10) VH: QVQLQQSGPELVKPGASVKISCKASGYSFTTYYIHWMKQRPGQGPEWIGWIYPGRGYTKYNEKFKDKAAQTADTSSNTAYMQLSSLRSEDSAVYYCARDWETGFPYWGQGTLVTVSA VL: DIVLTQSPASLAVSLGQRATISCKASQSVDYGGDSWLNWYQQKPGQPPKLLIYAASNLDSGIPARFGGSGSGTDFTLNIHPVEEEDAATYYCQQSGEDPFTFGGGTNLEIK = 118000
ACI-7079-3106F2-Ab1 (antibody, V domains shown, mouse hybridoma mAb; VH/VL only; also called 3106F2C8) VH: EVQLQQSGAELVRPGASVKLSCTASGFNVKDDYMHWVKQRPEQGLEWIGWIDPENGDTEYASKFQGKATLTADTSSNTAYLQLSGLTSVDTAVYYCTTAGTSPYYFDYWGQGTTLTVSS VL: DIVMTQSQKFMSTSVGDRVSVTCKASQNVGTNVAWYQQKVGQSPKALIYSASYRYSGVPDRFTGSGSGTDFTLTISNVQSEDLADYFCQQYNSYPLTFGSGTKLEIK = 344000
ACI-7089-4415G5-Ab1 (antibody, V domains shown, mouse hybridoma mAb; VH/VL only; also called 4415G5A11) VH: QVQLQQSGAELARPGASVKVSCKASGYTFTSSGISWLKHRTGQGLEWIGDIYPRSGNTYYNEKFKDKATLTADKSSSTAYMELRSLTSEDSAVYFCASGNYWGQGTTLTVSA VL: DIVITQDDLSNPVTSGESVSISCRSSKSLLYKDGKTYLNWFLQRPGQSPQLLIYLMSTRASGVSDRFSGSGSGTDFTLEISRVKAEDVGVYYCQQLLEYPLTFGAGTKLELK = 60000
ACI-7087-4125E6-Ab1 (antibody, V domains shown, mouse hybridoma mAb; VH/VL only; also called 4125E6D5) VH: QVQLQQPGTELVKPGASVRLSCKASGYAFTSYWMHWVKQRPGQGLEWIGNINPSNGGTNYNEKFKNKATLTVDKSSSTAYMQLSGLTSEDSAVYYCATGLHYWGQGTTLTVSS VL: DIQMTQSPSSLSASLGERVTLTCRASQDIGNYLNWLQQEPDGTIKRLIYATSSLDSGVPKRFSGSRSGSDYSLTISSLESEDFVDYYCLQFASSPLTFGPGTKLELK = 59100
ACI-8032-6301G2-Ab2 (antibody, V domains shown, mouse hybridoma mAb; VH/VL only; also called 6301G2D11) VH: EVQLQQSGPELVKPGASVKISCKASGYTFTDYFMNWVKQSHGKSLEWIGDINPNIGVTNYNPKFKDRATLTVDKSSSSAYMELRSLTSEDSTVYYCARGGGSNPLYYAMDYWGQGTSVTVSS VL: DIVMSQSPSSLAVSAGEKVTMSCKSSQSLLNSRTRKNYLAWYQQKPGQSPKLLIYWASTRESGVPDRFTGSGSGTDFTLTISSVQAEDLAVYFCKQSYDLWTFGGGTKLEIK = 390
ACI-8032-6301A10-Ab2 (antibody, V domains shown, mouse hybridoma mAb; VH/VL only; also called 6301A10E12) VH: QVQLQQSGAELARPGASVKLSCKASGYTFTSYGISWVKQRTGQGLEWIGEIYPRSGNTYYNEKFKGKATLTADKSSSTAYMELRSLTSEDSAVYFCASESYYGDYDWYFDVWGTGTTVTVSS VL: DVLMTQTPLSLPVSLGDQASISCRSSHSIEHSNGNTYLEWCLQKPGQPPKFLIYKVSNRFSGVPDRFSGSGSGTDFTLRISRVEAEDLGVYYCFQGSHVPPTFGGGTKLEIK = 450000
ACI-7067-4813-R4A-G7-rec1 (antibody, mouse IgG2a, V domains shown, from phage display of immunised mice; positive clones expressed recombinantly as murine IgG2a; VH/VL only; also called ACI-7067-R4A-G7-Ab-1) VH: EVQLEESGGGLVHPKGSLKLSCAASGFTFNSYAMHWVRQAPGKGLEWVARIRSKRSNYATYYADSVKDRFTISRDDSQSMVYLEMNNLEAEDTATYYCVRGGREAMDFWGQGTSVTVSS VL: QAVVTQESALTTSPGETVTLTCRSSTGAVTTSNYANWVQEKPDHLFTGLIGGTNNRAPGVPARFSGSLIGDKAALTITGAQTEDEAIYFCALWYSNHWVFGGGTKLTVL = 735000
ACI-8032-6301C8-Ab2 (antibody, V domains shown, mouse hybridoma mAb; VH/VL only; also called 6301C8G12) VH: QVQLQQSGAELARPGTSVKLSCKASGYTFTTYGISWVKQRTGQGLEWIGEIYPRSGNTYYNEKFKGKATLTADKPSSTAYMELRSLTSEDSAVYFCASESYYGDYAWYFDVWGTGTTVTVSS VL: DVLMTQIPLSLPVSLGDQASISCRSSQSIVHSNGNTYLEWHLQKPGQSPKLLIYEVSNRFSGVPDRFSGSGSGTDFTLNISRVEAEDLGVYYCFQGSHVPPTFGGGTKLEIK = 376000
ACI-7087-4119E10-Ab2 (antibody, V domains shown, mouse hybridoma mAb; VH/VL only; also called 4119E10D12) VH: QVQLQQSGAELVRPGASVTLSCKASGYTFSDYEMNWVKQTPVHGLEWIGAIDPETGGTAYNQKFKGKAILTSDKSSSTAYMELRSLTSEDSAVYYCTRFLLIDFDYWGQGTTLTVSS VL: DVLMTQTPLSLPVSLGDQASISCRSSQSIVHSNGNTYLEWYLKKAGQSPKVLIYKVSNRFSGVPDRFSGSGSGTDFTLKISRVEAEDLGVYYCFQGSHVPYTFGGGTELEIK = 18000
